For each record, write down the corresponding EC50.
System: NCI-H146 cancer cells
Assay: Cancer cell viability by MTS, 72 h, NCI-H146
Type: cell-based
Conditions: Homo sapiens
One number for each entry, in nM.

Example results:
Compound: CC1(C)CCC(CN2CCN(c3ccc(C(=O)NS(=O)(=O)c4ccc(NCC5CCN(C(=O)COCCOCCOCCNc6cccc7c6C(=O)N(C6CCC(=O)NC6=O)C7=O)CC5)c([N+](=O)[O-])c4)c(Oc4cnc5[nH]ccc5c4)c3)CC2)=C(c2ccc(Cl)cc2)C1 (stereo not shown) [XZ-14522]
Measurement Unit: nM
Reported Measurement: 1100
--
Compound: CC1(C)CCC(c2ccc(Cl)cc2)=C(CN2CCN(c3ccc(C(=O)NS(=O)(=O)c4ccc(N[C@H](CCN5CCN(C(=O)COCCOCCNc6cccc7c6C(=O)N(C6CCC(=O)NC6=O)C7=O)CC5)CSc5ccccc5)c(S(=O)(=O)C(F)(F)F)c4)cc3)CC2)C1 (stereo partly shown) [XZ-14515]
Measurement Unit: nM
Reported Measurement: 79.2

With those in mind, consider the next compound.
Q. Specify reported EC50 for the compound shown: CC1(C)CCC(c2ccc(Cl)cc2)=C(CN2CCN(c3ccc(C(=O)NS(=O)(=O)c4ccc(N[C@H](CCN5CCN(C(=O)COCCOCCOCCNc6cccc7c6C(=O)N(C6CCC(=O)NC6=O)C7=O)CC5)CSc5ccccc5)c(S(=O)(=O)C(F)(F)F)c4)cc3)CC2)C1 (stereo partly shown) [XZ-14510]
A. 112
